The origin of these recorded values is paper PMC8041304.

# TARGET_ENTITY: hCK2α (Homo sapiens)
# Construct: made in house
# TEST_METHOD_NOTES: Isothermal titration calorimetry (NanoITC)
# Type: binding
# MEASUREMENT_CONDITIONS: 35 °C, pH 8
# Protocol: In all experiments the maximum ligand concentration of 10 μM was used to minimize a possible contribution of the secondary binding site.
Field: pKd. Provide a value for each of the compounds that follow.
Keep in mind that pKd stands for -log10 of concentration in molar terms.

Problem: Request the reported pKd associated with Brc1cc2nn[nH]c2cc1Br
Solution: 7.03

Problem: Request the reported pKd associated with Brc1cc2[nH]nnc2c(Br)c1Br
Solution: 6.66

* * *

Field: ΔSother, entropy change assigned to all other processes accompanying ligand binding. Provide a value for each of the molecules that follow.
# TARGET_ENTITY: hCK2α (Homo sapiens, UniProt P68400)
# Construct: made in house
# Sequence (P68400 whole entry): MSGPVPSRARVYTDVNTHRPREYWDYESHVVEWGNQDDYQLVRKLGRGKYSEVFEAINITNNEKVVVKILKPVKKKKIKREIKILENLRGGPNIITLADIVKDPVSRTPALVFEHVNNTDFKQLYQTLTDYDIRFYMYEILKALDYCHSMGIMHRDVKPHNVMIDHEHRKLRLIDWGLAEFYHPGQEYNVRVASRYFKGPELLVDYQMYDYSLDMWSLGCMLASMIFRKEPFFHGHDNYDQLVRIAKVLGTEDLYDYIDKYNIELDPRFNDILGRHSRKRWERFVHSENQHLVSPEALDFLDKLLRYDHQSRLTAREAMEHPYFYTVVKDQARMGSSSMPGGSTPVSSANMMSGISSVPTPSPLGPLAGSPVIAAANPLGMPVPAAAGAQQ
# TEST_METHOD_NOTES: Isothermal titration calorimetry (MicroCal iTC200), reverse titration
# Format: binding
# MEASUREMENT_CONDITIONS: ΔSrt + ΔSHE(Ts) + ΔSother = 0
Give just the number in J∙mol-1∙K-1; leave the unit off.

Problem: Query ΔSother, entropy change assigned to all other processes accompanying ligand binding on hCK2α (Homo sapiens, UniProt P68400) for Brc1cc(Br)c2[nH]nnc2c1Br [4,5,7-Br3Bt]
Solution: 118

Problem: Query ΔSother, entropy change assigned to all other processes accompanying ligand binding on hCK2α (Homo sapiens, UniProt P68400) for Brc1cc(Br)c2n[nH]nc2c1 [4,6-Br2Bt]
Solution: 143

Problem: Query ΔSother, entropy change assigned to all other processes accompanying ligand binding on hCK2α (Homo sapiens, UniProt P68400) for Brc1ccc2n[nH]nc2c1 [5-BrBt]
Solution: 157

Problem: Query ΔSother, entropy change assigned to all other processes accompanying ligand binding on hCK2α (Homo sapiens, UniProt P68400) for Brc1ccc2[nH]nnc2c1Br [4,5-Br2Bt]
Solution: 143

* * *

# TEST_METHOD_NOTES: Density measurements: partial molar volume and thermal expansivity of the solute
# Assay type: physicochemical
# MEASUREMENT_CONDITIONS: 25 °C; 50 mM phosphate buffer pH 11
Field: V2^0, partial molar volume. Provide a value for each of the compounds that follow.
Give just the number in cm^3·mol^–1; leave the unit off.

Problem: Request the reported V2^0, partial molar volume associated with Brc1ccc(Br)c2n[nH]nc12 [4,7-Br2Bt]
Solution: 149.8

Problem: Request the reported V2^0, partial molar volume associated with Brc1c(Br)c(Br)c2[nH]nnc2c1Br [4,5,6,7-Br4Bt, 4,5,6,7-tetrabromobenzotriazole]
Solution: 194.1

Problem: Request the reported V2^0, partial molar volume associated with Brc1ccc2n[nH]nc2c1 [5-BrBt]
Solution: 132.7

Problem: Request the reported V2^0, partial molar volume associated with Brc1cc2[nH]nnc2c(Br)c1Br [4,5,6-Br3Bt]
Solution: 156.0

Problem: Request the reported V2^0, partial molar volume associated with Brc1cccc2n[nH]nc12 [4-BrBt]
Solution: 139.6

Problem: Request the reported V2^0, partial molar volume associated with Brc1cc2nn[nH]c2cc1Br [5,6-Br2Bt, 5,6-bromobenzotriazole]
Solution: 150.0

Problem: Request the reported V2^0, partial molar volume associated with Brc1cc(Br)c2n[nH]nc2c1 [4,6-Br2Bt]
Solution: 155.4

Problem: Request the reported V2^0, partial molar volume associated with Brc1cc(Br)c2[nH]nnc2c1Br [4,5,7-Br3Bt]
Solution: 174.7

Problem: Request the reported V2^0, partial molar volume associated with Brc1ccc2[nH]nnc2c1Br [4,5-Br2Bt]
Solution: 151.7
